Biological target: Protein Kinase C
Test: Protein kinase C inhibitory activity (method of Kikkawa et al.; crude enzyme from rat brain, Histone Type II S phosphorylation)
Assay type: biochemical
Details: crude enzyme partially purified from rat brain; [γ-32P]ATP, 30° C., 3 minutes, pH 7.5
Experimental: Protein kinase C inhibitory activity The protein kinase C inhibitory activity was measured by the method of Kikkawa, et al. [Journal of Biological Chemistry, 257, 13341 (1982)]. […]
Assign classes using reported IC50 Protein Kinase C Inhibitory Activity values and the ranges Low = under 0.08 µg/mL, Mid = from 0.08 µg/mL up to 0.9 µg/mL, High = 0.9 µg/mL and over, please.

**Q:** Which bin, given its IC50 Protein Kinase C Inhibitory Activity, does COc1c(C[C@@H](C)OC(=O)CCc2ccccc2)c2c3c(C[C@@H](C)OC(=O)CCc4ccccc4)c(OC)c(=O)c4c(O)cc(OC)c(c5c(OC)cc(O)c(c1=O)c52)c43 [Compound 10, 14,17-bis-O-3-phenylpropionyl UCN-1028D] occupy?
**A:** Low

**Q:** Which bin, given its IC50 Protein Kinase C Inhibitory Activity, does CCCNC(=O)O[C@H](C)Cc1c(OC)c(=O)c2c(O)cc(OC)c3c4c(OC)cc(O)c5c(=O)c(OC)c(C[C@@H](C)OC(=O)NCCC)c(c1c23)c54 [Compound 41] occupy?
**A:** High

**Q:** Which bin, given its IC50 Protein Kinase C Inhibitory Activity, does COc1c(C[C@@H](C)O)c2c3c(C[C@@H](C)O)c(OC)c(=O)c4c(O)cc(OC)c(c5c(OC)cc(O)c(c1=O)c52)c43 [Compound 45, UCN-1028D] occupy?
**A:** High

**Q:** Which bin, given its IC50 Protein Kinase C Inhibitory Activity, does CCCC(=O)O[C@H](C)Cc1c(OC)c(=O)c2c(O)cc(OC)c3c4c(OC)cc(O)c5c(=O)c(OC)c(C[C@@H](C)OC(=O)CCC)c(c1c23)c54 [Compound 2, 14,17-di-O-butyryl UCN-1028D] occupy?
**A:** Mid

**Q:** Which bin, given its IC50 Protein Kinase C Inhibitory Activity, does COc1c(C[C@@H](C)OC(C)=O)c2c3c(C[C@@H](C)OC(C)=O)c(OC)c(=O)c4c(O)cc(OC)c(c5c(OC)cc(O)c(c1=O)c52)c43 [Compound 1, 14,17-di-O-acetyl UCN-1028D] occupy?
**A:** High

**Q:** Which bin, given its IC50 Protein Kinase C Inhibitory Activity, does COc1c(C[C@@H](C)OC(=O)[C@@H](N)Cc2ccccc2)c2c3c(C[C@@H](C)OC(=O)[C@@H](N)Cc4ccccc4)c(OC)c(=O)c4c(O)cc(OC)c(c5c(OC)cc(O)c(c1=O)c52)c43 [Compound 17] occupy?
**A:** Mid

**Q:** Which bin, given its IC50 Protein Kinase C Inhibitory Activity, does COc1c(C[C@@H](C)OC(=O)OCc2ccccc2)c2c3c(C[C@@H](C)OC(=O)OCc4ccccc4)c(OC)c(=O)c4c(O)cc(OC)c(c5c(OC)cc(O)c(c1=O)c52)c43 [Compound 37, 14,17-bis-O-benzyloxycarbonyl UCN-1028D] occupy?
**A:** Low

**Q:** Which bin, given its IC50 Protein Kinase C Inhibitory Activity, does COc1c(C[C@@H](C)OC(=O)c2ccco2)c2c3c(C[C@@H](C)OC(=O)c4ccco4)c(OC)c(=O)c4c(O)cc(OC)c(c5c(OC)cc(O)c(c1=O)c52)c43 [Compound 35, 14,17-di-O-2-furoyl UCN-1028D] occupy?
**A:** Mid

---

Molecular target: Protein Kinase C
Experiment: Protein kinase C inhibitory activity (method of Kikkawa et al.; crude enzyme from rat brain, Histone Type II S phosphorylation)
Assay type: biochemical
Settings: crude enzyme partially purified from rat brain; [γ-32P]ATP, 30° C., 3 minutes, pH 7.5
IC50 Protein Kinase C Inhibitory Activity listing for selected molecules.
Report only the number, with the unit µg/mL understood.

# annotated cases, reported IC50 Protein Kinase C Inhibitory Activity shown
**Q:** What value of measured IC50 Protein Kinase C Inhibitory Activity is listed for COC(=O)O[C@H](C)Cc1c(OC)c(=O)c2c(O)cc(OC)c3c4c(OC)cc(O)c5c(=O)c(OC)c(C[C@@H](C)OC(=O)OC)c(c1c23)c54 [Compound 36, 14,17-bis-O-methoxycarbonyl UCN-1028D] ?
**A:** 0.29

**Q:** What value of measured IC50 Protein Kinase C Inhibitory Activity is listed for COc1c(C[C@@H](C)OS(=O)(=O)c2ccc(C)cc2)c2c3c(C[C@@H](C)OS(=O)(=O)c4ccc(C)cc4)c(OC)c(=O)c4c(O)cc(OC)c(c5c(OC)cc(O)c(c1=O)c52)c43 [Compound 40, 14,17-bis-O-p-toluenesulfonyl UCN-1028D] ?
**A:** 0.066

**Q:** What value of measured IC50 Protein Kinase C Inhibitory Activity is listed for COc1c(C[C@@H](C)OC(=O)c2ccncc2)c2c3c(C[C@@H](C)OC(=O)c4ccncc4)c(OC)c(=O)c4c(O)cc(OC)c(c5c(OC)cc(O)c(c1=O)c52)c43 [Compound 33, 14,17-di-O-isonicotinyl UCN-1028D] ?
**A:** 0.15

**Q:** What value of measured IC50 Protein Kinase C Inhibitory Activity is listed for COc1ccc(C(=O)O[C@H](C)Cc2c(OC)c(=O)c3c(O)cc(OC)c4c5c(OC)cc(O)c6c(=O)c(OC)c(C[C@@H](C)OC(=O)c7ccc(OC)cc7)c(c2c34)c65)cc1 [Compound 27, 14,17-bis-O-p-methoxybenzoyl UCN-1028D] ?
**A:** 0.05

**Q:** What value of measured IC50 Protein Kinase C Inhibitory Activity is listed for `COc1c(C[C@@H](C)OC(=O)c2ccccc2)c2c3c(C[C@@H](C)OC(=O)c4ccccc4)c(OC)c(=O)c4c(O)cc(OC)c(c5c(OC)cc(O)c(c1=O)c52)c43` ?
**A:** 0.025

More entries:
**Q:** What value of measured IC50 Protein Kinase C Inhibitory Activity is listed for `COc1c(C[C@@H](C)OC(=O)[C@H](N)c2ccccc2)c2c3c(C[C@@H](C)OC(=O)[C@H](N)c4ccccc4)c(OC)c(=O)c4c(O)cc(OC)c(c5c(OC)cc(O)c(c1=O)c52)c43` ?
**A:** 0.17

**Q:** What value of measured IC50 Protein Kinase C Inhibitory Activity is listed for `COc1c(C[C@@H](C)OC(=O)[C@@H](N)CC(C)C)c2c3c(C[C@@H](C)OC(=O)[C@@H](N)CC(C)C)c(OC)c(=O)c4c(O)cc(OC)c(c5c(OC)cc(O)c(c1=O)c52)c43` ?
**A:** 0.21

**Q:** What value of measured IC50 Protein Kinase C Inhibitory Activity is listed for `COc1c(C[C@@H](C)OC(=O)[C@H](N)Cc2ccccc2)c2c3c(C[C@@H](C)OC(=O)[C@H](N)Cc4ccccc4)c(OC)c(=O)c4c(O)cc(OC)c(c5c(OC)cc(O)c(c1=O)c52)c43` ?
**A:** 0.16

**Q:** What value of measured IC50 Protein Kinase C Inhibitory Activity is listed for `COc1c(C[C@@H](C)OC(=O)Nc2ccccc2)c2c3c(C[C@@H](C)OC(=O)Nc4ccccc4)c(OC)c(=O)c4c(O)cc(OC)c(c5c(OC)cc(O)c(c1=O)c52)c43` ?
**A:** 0.021

---

Target: Protein Kinase C
Experiment: Protein kinase C inhibitory activity (method of Kikkawa et al.; crude enzyme from rat brain, Histone Type II S phosphorylation)
Assay type: biochemical
Conditions: crude enzyme partially purified from rat brain; [γ-32P]ATP, 30° C., 3 minutes, pH 7.5
Label rule met when IC50 Protein Kinase C Inhibitory Activity < 0.07 µg/mL; otherwise rule not met.

**Q:** Given COc1c(C[C@@H](C)OC(=O)c2ccc(O)cc2)c2c3c(C[C@@H](C)OC(=O)c4ccc(O)cc4)c(OC)c(=O)c4c(O)cc(OC)c(c5c(OC)cc(O)c(c1=O)c52)c43 [Compound 26, 14,17-bis-O-p-hydroxybenzoyl UCN-1028D] , is recorded IC50 Protein Kinase C Inhibitory Activity strictly lower than 0.07 µg/mL?
**A:** rule not met

**Q:** Given COc1c(C[C@@H](C)OC(=O)CCCc2ccccc2)c2c3c(C[C@@H](C)OC(=O)CCCc4ccccc4)c(OC)c(=O)c4c(O)cc(OC)c(c5c(OC)cc(O)c(c1=O)c52)c43 [Compound 11, 14,17-bis-O-4-phenylbutyryl UCN-1028D] , is recorded IC50 Protein Kinase C Inhibitory Activity strictly lower than 0.07 µg/mL?
**A:** rule met

**Q:** Given COc1c(C[C@@H](C)OC(=O)Cc2cccc3ccccc23)c2c3c(C[C@@H](C)OC(=O)Cc4cccc5ccccc45)c(OC)c(=O)c4c(O)cc(OC)c(c5c(OC)cc(O)c(c1=O)c52)c43 [Compound 12, 14,17-bis-O-1-naphthylacetyl UCN-1028D] , is recorded IC50 Protein Kinase C Inhibitory Activity strictly lower than 0.07 µg/mL?
**A:** rule met

More entries:
**Q:** Given C=CCCC(=O)O[C@H](C)Cc1c(OC)c(=O)c2c(O)cc(OC)c3c4c(OC)cc(O)c5c(=O)c(OC)c(C[C@@H](C)OC(=O)CCC=C)c(c1c23)c54 [Compound 7, 14,17-di-O-pentenoyl UCN-1028D] , is recorded IC50 Protein Kinase C Inhibitory Activity strictly lower than 0.07 µg/mL?
**A:** rule met

**Q:** Given COc1c(C[C@@H](C)OC(=O)c2ccc3ccccc3c2)c2c3c(C[C@@H](C)OC(=O)c4ccc5ccccc5c4)c(OC)c(=O)c4c(O)cc(OC)c(c5c(OC)cc(O)c(c1=O)c52)c43 [Compound 32, 14,17-di-O-2-naphthoyl UCN-1028D] , is recorded IC50 Protein Kinase C Inhibitory Activity strictly lower than 0.07 µg/mL?
**A:** rule not met

**Q:** Given CCCCCCC(=O)O[C@H](C)Cc1c(OC)c(=O)c2c(O)cc(OC)c3c4c(OC)cc(O)c5c(=O)c(OC)c(C[C@@H](C)OC(=O)CCCCCC)c(c1c23)c54 [Compound 4, 14,17-di-O-heptanoyl UCN-1028D] , is recorded IC50 Protein Kinase C Inhibitory Activity strictly lower than 0.07 µg/mL?
**A:** rule met
